System: MBIO-301-derived split enzyme
Test: Bioluminescence emission of synthetic luciferin substrates with MBIO-301-derived split enzyme (FRB:FKBP, rapamycin)
Assay type: biochemical
Conditions: 1 nM MBIO-557, 1 nM MBIO-563, 10 μM Substrate, 100 nM Rapamycin
property_measured: Fold Change with Rapamycin Addition at Initial Read
Give only the figure.

Recorded Fold Change with Rapamycin Addition at Initial Read, per entry:
{"compound": "O=c1c(Cc2ccccc2)nc2c(-c3ccc(F)cc3)[nH]c(-c3ccccc3)cn1-2 [2d]", "experimental_value": 46.2}
{"compound": "O=c1c(Cc2ccccc2)nc2c(-c3ccccc3)[nH]c(-c3ccc(O)cc3)cn1-2 [1c]", "experimental_value": 116.8}

Data request: Query Fold Change with Rapamycin Addition at Initial Read for O=c1c(Cc2ccccc2)nc2c(-c3ccccc3)[nH]c(-c3ccccc3)cn1-2 [DTZ, Diphenylterazine, reference compound]
Data returned: 58.4

Data request: Please report the measured Fold Change with Rapamycin Addition at Initial Read for O=c1c(Cc2ccccc2)nc2c(-c3cccnc3)[nH]c(-c3ccccc3)cn1-2 [2p]
Data returned: 17.1
